tested on: Es-2; experiment: Primary qHTS to identify gynecologic anti-cancer compounds using libraries of approved drugs and bioactive compounds (AID 1345084); details: Gynecologic cancer cell panel viability, ATPlite luminescence, 48 h; series mostly up to 57.5 µM; further: on the % scale 0 is the no-effect control and ±100 the full control effect; nearly all actives have a fitted effect of over 55% in size
Results filed as inconclusive are left out. Activity calls are given as the source filed them. The call rests on the fitted dose curve; in most records, active means well fitted cell-killing curve with a large enough effect; inconclusive means small, poorly fitted or top-dose-only effect, or effect the other way; inactive means flat fitted curve, though single readings scatter.
measured endpoint: activity change, negative = cytotoxicity

Reported activity change, negative = cytotoxicity, compound COC1CC(OC2CCC3(C)C(=CCC4C3C(OC(C)=O)C(OC(=O)/C=C/c3ccccc3)C3(C)C(C(C)O)CCC43O)C2)OC(C)C1OC1CC(OC)C(OC2OC(C)C(OC3OC(CO)C(O)C(O)C3O)C(OC)C2O)C(C)O1 (stereo unspecified) : ____ 4.75% [at 6.55 µM] (inactive)
